Reference source for all entries: patent US20260092062A1

Target: E297G variant of human ABCB11 (Homo sapiens, UniProt O95342, E297G)
Sequence (O95342 whole entry E297G): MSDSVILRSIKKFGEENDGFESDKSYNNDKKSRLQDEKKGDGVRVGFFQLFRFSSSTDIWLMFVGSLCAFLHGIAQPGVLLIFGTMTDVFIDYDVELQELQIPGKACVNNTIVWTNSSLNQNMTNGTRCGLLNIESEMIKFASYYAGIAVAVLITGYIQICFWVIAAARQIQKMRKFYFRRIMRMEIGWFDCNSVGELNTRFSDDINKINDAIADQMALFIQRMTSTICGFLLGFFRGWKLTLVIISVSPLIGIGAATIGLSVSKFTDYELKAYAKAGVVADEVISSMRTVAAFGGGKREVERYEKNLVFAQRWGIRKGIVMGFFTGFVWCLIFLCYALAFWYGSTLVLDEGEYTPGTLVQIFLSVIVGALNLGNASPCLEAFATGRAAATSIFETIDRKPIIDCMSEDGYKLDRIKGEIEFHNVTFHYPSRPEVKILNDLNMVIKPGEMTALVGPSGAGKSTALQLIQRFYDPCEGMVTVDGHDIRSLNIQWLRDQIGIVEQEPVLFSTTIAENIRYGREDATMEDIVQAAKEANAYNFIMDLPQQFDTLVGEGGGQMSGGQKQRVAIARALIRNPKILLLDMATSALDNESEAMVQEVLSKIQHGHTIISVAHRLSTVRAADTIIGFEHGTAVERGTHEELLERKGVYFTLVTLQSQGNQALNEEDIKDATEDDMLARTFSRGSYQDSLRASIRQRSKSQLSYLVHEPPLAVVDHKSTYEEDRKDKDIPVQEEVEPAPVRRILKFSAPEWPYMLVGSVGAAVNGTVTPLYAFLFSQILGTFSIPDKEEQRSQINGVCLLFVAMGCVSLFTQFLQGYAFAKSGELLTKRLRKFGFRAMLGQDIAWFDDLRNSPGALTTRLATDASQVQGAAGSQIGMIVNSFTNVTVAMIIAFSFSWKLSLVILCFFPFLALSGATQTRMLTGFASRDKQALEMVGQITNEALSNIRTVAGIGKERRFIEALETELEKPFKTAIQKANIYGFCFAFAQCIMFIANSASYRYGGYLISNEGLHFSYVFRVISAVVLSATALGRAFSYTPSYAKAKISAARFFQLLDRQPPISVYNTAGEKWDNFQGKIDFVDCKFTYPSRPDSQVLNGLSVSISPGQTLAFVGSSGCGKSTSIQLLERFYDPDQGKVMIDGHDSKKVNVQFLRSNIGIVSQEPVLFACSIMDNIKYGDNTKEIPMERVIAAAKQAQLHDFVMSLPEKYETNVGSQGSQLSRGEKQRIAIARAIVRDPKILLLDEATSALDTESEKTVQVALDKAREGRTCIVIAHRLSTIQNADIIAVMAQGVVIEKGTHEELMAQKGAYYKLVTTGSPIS
Assay: ABCB11 E297G expression assay (HiBit lytic luminescence) in HEK-293/E297G cells
Details: increase in expression of ABCB11 E297G, 24 hours treatment, top concentration 25 μM, class also includes Emax criterion, read-out: BSEP EC50
pEC50: −log10 of the molar value.
assay-readout: pEC50

Past entries and their recorded results:
>  <compound>
Cc1ccc(NC(=O)C2CCN(c3ccccc3)CC2)nc1-c1cn(C)c(=O)c2[nH]ccc12

>  <assay-readout>
pEC50

>  <observed>
> 5.60

$$$$
>  <compound>
Cc1ccc(NC(=O)C2CCCc3ccccc32)nc1-c1cn(C)c(=O)c2[nH]ccc12 (stereo not shown)

>  <assay-readout>
pEC50

>  <observed>
> 5.60

$$$$

Sample Cc1cnc2ncc(C(=O)Nc3ccc(C)c(-c4cn(C)c(=O)c5[nH]ccc45)n3)n2c1 — what was its pEC50?
< 4.60

Sample Cc1ccc(NC(=O)c2ccncn2)nc1-c1cn(C)c(=O)c2[nH]ccc12 — what was its pEC50?
4.60 to 5.00

Sample Cc1ccc(NC(=O)c2ccc3cnccc3c2)nc1-c1cn(C)c(=O)c2[nH]ccc12 — what was its pEC50?
5.00 to 5.60

Sample Cc1ccc(NC(=O)c2cc(CC(C)C)nn2C)nc1-c1cn(C)c(=O)c2[nH]ccc12 — what was its pEC50?
> 5.60

Sample Cc1ccc(NC(=O)[C@@H]2CCCN2C(C)C)nc1-c1cn(C)c(=O)c2[nH]ccc12 — what was its pEC50?
5.00 to 5.60

Sample Cc1ccc(NC(=O)C2CCN(c3ccccn3)CC2)nc1-c1cn(C)c(=O)c2[nH]ccc12 — what was its pEC50?
5.00 to 5.60

Sample Cc1ccc(NC(=O)c2nc(-c3ccccc3)ns2)nc1-c1cn(C)c(=O)c2[nH]ccc12 — what was its pEC50?
< 4.60

Sample Cc1ccc(NC(=O)c2cnn(-c3ccccc3F)c2)nc1-c1cn(C)c(=O)c2[nH]ccc12 — what was its pEC50?
< 4.60

Sample Cc1ccc(NC(=O)c2cc3n(n2)CCCC3)nc1-c1cn(C)c(=O)c2[nH]ccc12 — what was its pEC50?
5.00 to 5.60

Sample Cc1ccc(NC(=O)c2coc(N3CCOCC3)n2)nc1-c1cn(C)c(=O)c2[nH]ccc12 — what was its pEC50?
5.00 to 5.60

Sample Cc1ccc(NC(=O)c2cccc3c2OC(C)(C)CC3)nc1-c1cn(C)c(=O)c2[nH]ccc12 — what was its pEC50?
5.00 to 5.60

Sample Cc1ccc(NC(=O)c2cnn(C3CCOCC3)c2)nc1-c1cn(C)c(=O)c2[nH]ccc12 — what was its pEC50?
4.60 to 5.00

Sample Cc1ccc(NC(=O)c2ccc3c(c2)OCCN3C)nc1-c1cn(C)c(=O)c2[nH]ccc12 — what was its pEC50?
5.00 to 5.60

Sample Cc1ccc(NC(=O)c2ccc3c(c2)n(C)c(=O)n3C)nc1-c1cn(C)c(=O)c2[nH]ccc12 — what was its pEC50?
< 4.60

====

Target: E297G variant of human ABCB11 (Homo sapiens, UniProt O95342, E297G)
Assay: ABCB11 E297G expression assay (HiBit lytic luminescence) in HEK-293/E297G cells
Details: increase in expression of ABCB11 E297G, 24 hours treatment, top concentration 25 μM, class also includes Emax criterion, read-out: BSEP EC50
assay-readout: EC50

Sample Cc1ccc(NC(=O)c2ccc(C(F)(F)F)nc2)nc1-c1cn(C)c(=O)c2[nH]ccc12 [Compound I-5] — what was its EC50?
2.5 to 10 µM

Sample Cc1ccc(NC(=O)c2nc3c(s2)CN(C)CC3)nc1-c1cn(C)c(=O)c2[nH]ccc12 [Compound I-16] — what was its EC50?
10 to 25 µM

Sample Cc1ccc(NC(=O)c2cc3ccc(F)cc3n2C)nc1-c1cn(C)c(=O)c2[nH]ccc12 [Compound I-14] — what was its EC50?
> 25 µM

Sample Cc1ccc(NC(=O)c2ccc(-n3cccn3)cc2)nc1-c1cn(C)c(=O)c2[nH]ccc12 [Compound I-23] — what was its EC50?
> 25 µM

Sample Cc1ccc(NC(=O)c2cnc(C(F)(F)F)s2)nc1-c1cn(C)c(=O)c2[nH]ccc12 [Compound I-7] — what was its EC50?
> 25 µM
